target.entity: T1, cynomolgus PD-1 (#PD1-C52H5, AcroBiosystems) (cynomolgus monkey, UniProt B0LAJ3 25-170)
T1 construct: bought; also called cynomolgus monkey PD-1; not shown: the vendor's tag on the recombinant protein (AcroBiosystems #PD1-C52H5)
assay.notes: SPR, PD-1 on captured IgG1
quantity.measured: pKd
Bear in mind: pKd is minus log10 of a mol/L concentration; give just that figure.

| binder | pKd |
| --- | --- |
| GDY271 (antibody, human IgG1, V domains shown, human IgG1) VH: EVQLLESGGGLVQPGGSLRLSCAASGFTFSINAMTWVRQAPGKGLEWVSTISGSGFSTYYADSLKGRFTISRDNSKNTLYLQMNSLRAEDTAVYYCAKEVYGDYWGQGTLVTVSS VL: RSVLTQPPSASGTPGQRVSISCSGASSNIGSQSVYWYQQLPGTAPKLLIYSNNQRPSGVPDRFSGSKSGTSASLAISGLRSEDEADYYCAAWDDSLSIWVFGGGTKLTVL | 8.20 |

Give the measured pKd of GZZ692 (antibody, human IgG1, V domains shown, human IgG1) VH: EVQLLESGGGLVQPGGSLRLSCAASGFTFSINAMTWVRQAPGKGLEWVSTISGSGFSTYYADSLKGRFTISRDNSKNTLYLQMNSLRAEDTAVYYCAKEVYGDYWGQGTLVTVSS VL: RSVLTQPPSASGTPGQRVSISCSGASSNIGSQSVFWYQQLPGTAPKLLGYSNNQRPSGVPDRFSGSKSGTSASLAISGLRSEDEADYYCAAWDDSLSIWVFGGGTKLTVL . 8.35

Which pKd is reported for this binder? JOH712 (antibody, human IgG1, V domains shown, human IgG1) VH: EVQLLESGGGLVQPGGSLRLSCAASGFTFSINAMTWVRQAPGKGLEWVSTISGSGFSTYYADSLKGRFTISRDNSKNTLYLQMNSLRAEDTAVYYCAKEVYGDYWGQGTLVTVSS VL: RSVLTQPPSASGTPGQRVSISCSGASSNIGSQSVFWYQQHPGTAPKLLIYSNNQRPSGVPDRFSGSKSGTSASLAISGLRSEDEADYYCAAWDDSLSIWVFGGGTKLTVL 8.95
